Field: Ki. Provide a value for each of the compounds that follow.
SYSTEM NAME: UniProt Q07820
Sequence (Q07820 172-327): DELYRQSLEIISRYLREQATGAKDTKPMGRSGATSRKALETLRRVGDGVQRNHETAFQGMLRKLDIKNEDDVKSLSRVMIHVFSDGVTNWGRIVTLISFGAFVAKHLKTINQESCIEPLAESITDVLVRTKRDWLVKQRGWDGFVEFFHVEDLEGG
PROTOCOL DESCRIPTION: Fluorescence polarization competition assay (FPCA), Mcl-1 / FITC-Bak BH3 peptide
Assay type: binding
TEST CONTEXT: FPCA with FITC-Bak; Ki from IC50 by Nikolovska-Coleska equation; read-out: Mcl-1 Ki
Answers are plain numbers, in µM.

Recorded results for 4 compounds are shown here.
SMILES TEXT: COc1c(C(=O)O)cc(S(=O)(=O)N(CC(C)C)c2ccc(Br)cc2)c2ccccc12
Ki (µM): 23.4
//
SMILES TEXT: Cc1cc(Oc2ccc(S(=O)(=O)N(Cc3ccccc3)c3ccc(O)c(C(=O)NS(=O)(=O)c4ccc(NCC5CCOCC5)c([N+](=O)[O-])c4)c3)cc2)cc(C)c1Cl
Ki (µM): 1.01
//
SMILES TEXT: Cc1cc(Oc2ccc(S(=O)(=O)N(CC(C)C)c3ccc(C(=O)O)cc3)cc2)cc(C)c1Cl
Ki (µM): 2.06
//
SMILES TEXT: CC(C)CN(c1ccc(OC(C)C)cc1)S(=O)(=O)c1cc(C(=O)O)c(O)c2ccccc12
Ki (µM): 0.487

Turning to the following compound.
INPUT: What value of Ki has been recorded for this entry: COc1cc(N(CC(C)C)S(=O)(=O)c2ccc(Oc3ccccc3)cc2)ccc1C(=O)O
OUTPUT: 107
